Measured IC50 (UniProt:O00763)
Readout: IC50 (nM)

>>> observed_result("CC(=O)NC(C)Cc1ccc(C#Cc2cnn(C)c2)cc1 (stereo not drawn)")
4900
>>> observed_result("COc1ccc(C#Cc2ccc(C(C)NC(C)=O)cc2)c(C)c1 (stereo not drawn)")
2100
>>> observed_result("CC(Cc1ccc(C#Cc2ccc(OC(C)C)nc2)cc1)NC(=O)C1CC1 (stereo not drawn)")
480
>>> observed_result("CC(=O)NC(C)Cc1ccc(C#Cc2ccc(N3CCOCC3)cc2)cc1 (stereo not drawn)")
640
>>> observed_result("CCOc1ncc(C#Cc2ccc([C@H](C)NC(C)=O)cc2)cn1")
2600
>>> observed_result("CC(=O)NC(C)Cc1ccc(C#Cc2cccc(C(=O)N3CCC(C)(C)CC3)c2)cc1 (stereo not drawn)")
1600
>>> observed_result("CC(=O)NC(C)Cc1ccc(C#Cc2ccnc(OC(C)C)n2)cc1 (stereo not drawn)")
7100
>>> observed_result("CCOc1ccc(C#Cc2ccc(CC(C)NC(=O)c3ccon3)cc2)cc1 (stereo not drawn)")
1100
>>> observed_result("CCOc1ccc(C#Cc2ccc(CC(C)NC(=O)CCOC)cc2)cc1 (stereo not drawn)")
1400

====

# System under test: human ACC2 (Homo sapiens (Human))
# Sequence (O00763 129-2458): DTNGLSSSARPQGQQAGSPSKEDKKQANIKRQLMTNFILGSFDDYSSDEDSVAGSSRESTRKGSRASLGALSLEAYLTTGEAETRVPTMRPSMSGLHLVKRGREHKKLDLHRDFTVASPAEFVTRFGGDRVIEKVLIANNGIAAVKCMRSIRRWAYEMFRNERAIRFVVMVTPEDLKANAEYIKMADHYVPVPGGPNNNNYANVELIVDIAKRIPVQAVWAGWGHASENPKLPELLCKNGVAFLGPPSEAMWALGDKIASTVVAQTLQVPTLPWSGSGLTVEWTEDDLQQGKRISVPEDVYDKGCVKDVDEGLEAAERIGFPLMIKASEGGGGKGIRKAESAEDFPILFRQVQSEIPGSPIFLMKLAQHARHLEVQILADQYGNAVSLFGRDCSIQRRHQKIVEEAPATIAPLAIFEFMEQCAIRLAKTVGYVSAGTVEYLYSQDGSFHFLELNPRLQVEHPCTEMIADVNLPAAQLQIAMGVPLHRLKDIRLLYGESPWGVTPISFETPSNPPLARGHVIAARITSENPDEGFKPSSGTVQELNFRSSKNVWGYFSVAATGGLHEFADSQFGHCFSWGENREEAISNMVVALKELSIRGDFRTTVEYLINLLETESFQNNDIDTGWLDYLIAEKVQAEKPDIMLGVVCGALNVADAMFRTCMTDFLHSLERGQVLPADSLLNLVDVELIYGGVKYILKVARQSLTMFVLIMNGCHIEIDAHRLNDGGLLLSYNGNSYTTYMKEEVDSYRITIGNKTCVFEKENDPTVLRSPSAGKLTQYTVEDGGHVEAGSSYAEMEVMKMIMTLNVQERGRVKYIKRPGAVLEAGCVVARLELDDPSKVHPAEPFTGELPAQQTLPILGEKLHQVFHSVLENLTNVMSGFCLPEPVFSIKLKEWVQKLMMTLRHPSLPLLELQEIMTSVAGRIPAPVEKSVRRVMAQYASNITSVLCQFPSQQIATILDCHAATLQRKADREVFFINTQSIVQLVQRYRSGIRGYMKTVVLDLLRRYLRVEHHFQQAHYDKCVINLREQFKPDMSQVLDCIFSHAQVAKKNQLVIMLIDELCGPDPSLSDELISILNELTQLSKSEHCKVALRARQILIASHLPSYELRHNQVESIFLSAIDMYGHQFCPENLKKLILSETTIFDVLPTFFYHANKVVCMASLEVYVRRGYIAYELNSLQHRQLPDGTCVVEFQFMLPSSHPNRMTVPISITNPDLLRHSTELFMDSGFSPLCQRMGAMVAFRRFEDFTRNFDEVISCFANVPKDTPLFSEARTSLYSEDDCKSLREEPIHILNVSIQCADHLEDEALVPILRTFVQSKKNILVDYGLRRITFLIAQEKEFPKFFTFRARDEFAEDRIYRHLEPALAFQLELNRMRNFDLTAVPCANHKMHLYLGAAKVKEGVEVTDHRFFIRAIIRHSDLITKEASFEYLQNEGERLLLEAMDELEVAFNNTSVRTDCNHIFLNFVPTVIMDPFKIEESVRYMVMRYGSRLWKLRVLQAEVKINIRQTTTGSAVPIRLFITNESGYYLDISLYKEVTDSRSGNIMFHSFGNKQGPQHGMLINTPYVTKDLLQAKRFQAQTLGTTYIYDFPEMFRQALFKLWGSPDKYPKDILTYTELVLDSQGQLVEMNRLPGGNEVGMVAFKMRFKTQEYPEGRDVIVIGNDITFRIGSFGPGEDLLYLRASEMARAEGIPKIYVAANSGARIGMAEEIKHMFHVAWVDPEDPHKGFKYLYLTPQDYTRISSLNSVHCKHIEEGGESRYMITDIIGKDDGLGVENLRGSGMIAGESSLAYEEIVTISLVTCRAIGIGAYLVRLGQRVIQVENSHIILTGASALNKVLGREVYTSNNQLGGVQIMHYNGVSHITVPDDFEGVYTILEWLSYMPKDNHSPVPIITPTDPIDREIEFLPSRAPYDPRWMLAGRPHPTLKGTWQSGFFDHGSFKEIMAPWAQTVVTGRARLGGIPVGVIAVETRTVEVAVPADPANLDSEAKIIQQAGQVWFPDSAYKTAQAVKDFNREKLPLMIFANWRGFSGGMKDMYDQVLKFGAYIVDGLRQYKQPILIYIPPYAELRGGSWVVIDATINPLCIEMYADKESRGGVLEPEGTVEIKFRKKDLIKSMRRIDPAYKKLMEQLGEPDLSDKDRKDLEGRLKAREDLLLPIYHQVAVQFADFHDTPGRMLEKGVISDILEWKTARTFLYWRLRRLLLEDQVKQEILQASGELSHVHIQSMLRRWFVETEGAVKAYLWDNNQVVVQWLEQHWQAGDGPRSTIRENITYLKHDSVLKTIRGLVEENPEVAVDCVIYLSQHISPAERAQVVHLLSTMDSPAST
Cut-off 0.9 µM on IC50: below means Criterion met, at or above means Criterion not met.

>>> assigned_class("CCC(=O)NCC(C)c1ccc(C#Cc2cnc(OC3CCC3)nc2)cc1 (stereo not shown) [Example 4.78]")
"Criterion met"
>>> assigned_class("CCNc1ncc(C#Cc2ccc(CC(C)NC(=O)N(C)C)cc2)cn1 (stereo not shown) [Example 13.26]")
"Criterion met"
>>> assigned_class("CC(Cc1ccc(C#Cc2cccc(OC(C)C)c2)cc1)NC(=O)C1CC1 (stereo not shown) [Example 14.32]")
"Criterion met"
>>> assigned_class("CCCc1ccc(C#Cc2ccc(CC(C)NC(=O)C3CC3)cc2)cc1 (stereo not shown) [Example 2.63]")
"Criterion met"
>>> assigned_class("CCCOc1cc(C#Cc2ccc(CCNC(C)=O)cc2)ccn1 [Example 14.39]")
"Criterion not met"
>>> assigned_class("COc1cc(C#Cc2ccc(CC(C)NC(C)=O)cc2)ccn1 (stereo not shown) [Example 2.94]")
"Criterion met"
>>> assigned_class("CC(=O)NC(C)Cc1ccc(C#Cc2ccc(Oc3cncnc3)nc2)cc1 (stereo not shown) [Example 2.26]")
"Criterion not met"
>>> assigned_class("CC(=O)NC(C)Cc1ccc(C#Cc2ccc(OC(C)C)nn2)cc1 (stereo not shown) [Example 2.86]")
"Criterion not met"
>>> assigned_class("CC(=O)NC(C)Cc1ccc(C#Cc2cnc(NCC(F)(F)F)nc2)cc1 (stereo not shown) [Example 13.59]")
"Criterion met"
>>> assigned_class("CCCOc1ccc(C#Cc2ccc(CCNC(C)=O)cc2)cc1 [Example 14.37]")
"Criterion met"
>>> assigned_class("CC(=O)NC(C)Cc1ccc(C#Cc2ccc(Br)cc2)cc1 (stereo not shown) [Example 2.15]")
"Criterion met"
>>> assigned_class("CCOc1ccc(C#Cc2ccc(CCNC(C)=O)cn2)cc1 [Example 35.3]")
"Criterion not met"
>>> assigned_class("CC(=O)NC(C)Cc1ccc(C#Cc2ccn(CC(C)C)c(=O)c2)cc1 (stereo not shown) [Example 2.82]")
"Criterion not met"
>>> assigned_class("CCCOc1ccc(C#Cc2ccc(CC(C)NC(C)=O)cc2)c(C)c1 (stereo not shown) [Example 2.95]")
"Criterion met"
>>> assigned_class("CC(=O)NC(C)Cc1ccc(C#Cc2cccc(C(=O)N3CCC(c4ccncc4)C3)c2)cc1 (stereo not shown) [Example 8.31]")
"Criterion not met"
>>> assigned_class("CCOc1ccc(C#Cc2ccc([C@H](C)NC(C)=O)cc2)cn1 [Example 14.25]")
"Criterion not met"
>>> assigned_class("CC(=O)NC(C)Cc1ccc(C#Cc2ccc(CN3CCCC3)cc2)cc1 (stereo not shown) [Example 2.12]")
"Criterion not met"
>>> assigned_class("CC(Cc1ccc(C#Cc2ccc(OCC3CC3)cc2)cc1)NC(=O)C1CC1 (stereo not shown) [Example 14.18]")
"Criterion met"

The measured values listed here are drawn from patent US8835472B2.
